# Tested on: KM12 colon
# ASSAY_OVERVIEW: NCI tumour cell line growth inhibition, 48 h
Reported GI50 values follow for various molecules

MOLECULE | MEASURED_ON | GI50
C=C1C(=O)O[C@H]2[C@H]1CC/C(C=Nc1ccc(C(F)(F)F)cc1N)=C\CC[C@@]1(C)O[C@@H]21 | KM12 colon | 13400 nM
COc1ccc(C(=O)C(c2ccc(OC)cc2)C2C(=O)Oc3ccccc32)cc1 (centres undefined) | KM12 colon | > 100000 nM

For COc1ccccc1CNCCCN1C(=O)c2ccc3c4c(ccc(c24)C1=O)C(=O)N(CCCNCCCCNCCCCN)C3=O , what is its reported GI50?
2420 nM

Likewise for O=C(CSc1nc2ccc([N+](=O)[O-])cc2[nH]1)Nc1cccc(Cl)c1 ?
3100 nM

Likewise for C[As](C)Sc1ccnc(S[As](C)C)n1 ?
9520 nM

Likewise for CC(C)c1ccc2c(N=Nc3ccc(S(N)(=O)=O)cc3)c(O)[nH]c2c1 ?
1240 nM

Likewise for O=C(/C=C/c1ccccn1)c1ccccc1O ?
1550 nM

Likewise for O=C(O)c1cc(N/C=C2\C(=O)c3ccccc3OC2O)ccc1O (centres undefined) ?
25.7 µg/mL

Likewise for CCCCCCCCCCCC1=NC(C)(C)CN1CCO ?
2850 nM

###

# Tested on: HOP-62 NSCLC
# ASSAY_OVERVIEW: NCI tumour cell line growth inhibition, 48 h
ASSAY_ENDPOINT: TGI

Consider the reported TGI for these compounds:
COMPOUND | RESULT
C=C1C(=O)O[C@H]2[C@H]1CC/C(COC(=O)/C=C\C(=O)NCc1ccc(Cn3c(=O)sn(-c4ccc(OC)cc4)c3=O)cc1)=C\CC[C@@]1(C)O[C@@H]21 | 10 µM
Nc1ncnc2c1ncn2[C@@H]1C[C@H]1CO | > 100 µM
Cc1ccc(S(=O)(=O)NC(=O)C2(Br)S(=O)(=O)OCCOS2(=O)=O)cc1 | > 100 µM

Tell me reported TGI for Cc1ccc(-c2c(C#N)c(-c3ccc([N+](=O)[O-])cc3)c(C#N)c(=O)n2NS(=O)(=O)c2ccc(C)cc2)cc1 , tested with HOP-62 NSCLC.
> 100 µM

Likewise for O=C1NC2OCC(O)C(O1)C2O (stereo not given) ?
> 100 µM

###

Reported TGI values follow for various molecules
# System: HOP-62 NSCLC
# ASSAY_OVERVIEW: NCI tumour cell line growth inhibition, 48 h

For CN(C)C1(C(=O)O)CC1 , what is its reported TGI?
> 100 µM

Likewise for COCC[N+](CCNC(=O)c1cccc2c(N)c3cccc(C)c3nc12)(CCOC)Cc1ccc([N+](=O)[O-])cc1 ?
> 100 µM

Likewise for CC1(C)CC(=O)C(C(c2cccc(O)c2O)C2C(=O)CC(C)(C)CC2=O)C(=O)C1 ?
> 100 µM

Likewise for O=C(O)c1cc(N/C=C2\C(=O)c3ccccc3OC2O)ccc1O (centres undefined) ?
75.3 µg/mL

###

# Test system: SNB-78 CNS
# ASSAY_OVERVIEW: NCI tumour cell line growth inhibition, 48 h
ASSAY_ENDPOINT: TGI

Consider the reported TGI for these molecules:
MOLECULE | ASSAY_ENDPOINT | RESULT
CN(C)c1ccccc1CC(c1c[nH]c2ccccc12)c1c[nH]c2ccccc12 | TGI | 32.5 µM
Cc1ccc(S(=O)(=O)NC(=O)C2(Br)S(=O)(=O)OCCOS2(=O)=O)cc1 | TGI | > 100 µM

For COc1ccc(C(=O)/C(=N/Nc2ccccc2)c2ccc(OC)cc2)cc1 , what is its reported TGI?
> 100 µM

Likewise for CC(N)C(=O)c1ccc(O)cc1 (stereo not drawn) ?
> 100 µM

Likewise for CCOc1ccc(C2=C(Cl)c3cc(OC)c(OC)cc3C2Cl)cc1 (stereo not drawn) ?
> 100 µM

Likewise for COc1ccc(NC(=O)CC/C(CC(=O)c2ccccc2Cl)=N\Nc2nnc(C)n2N)cc1 ?
> 100 µM

###

# Test system: MDA-MB-435
The categories you may choose from are active, inactive

MOLECULE | ASSIGNED_LABEL
COc1ccc2nc3cccc([N+](=O)[O-])c3c(NCCN(CCO)CCO)c2c1 | active
Cc1ccc(Cl)cc1Nc1nc(C(F)(F)F)ccc1C(=O)N/N=C/c1c(Cl)cccc1Cl | inactive
C#CC[C@@H]1C[C@]2(C)[C@H]3CC[C@@H]4[C@H]5[C@H](C(=C)C)CC[C@]5(C(=O)O)CC[C@@]4(C)[C@]3(C)CC[C@H]2C(C)(C)[C@H]1O | inactive

Check the results log: what was the call for COc1cc(C(=O)NC2CCN(C)CC2)ccc1Nc1ncc2c(n1)N(C1CCCC1)CC(F)(F)C(=O)N2C ?
active

###

# System: UACC-257 melanoma
# ASSAY_OVERVIEW: NCI tumour cell line growth inhibition, 48 h
Reported TGI values follow for various compounds
Reply numerically in µM, unit not repeated.

Consider the reported TGI for these compounds:
COMPOUND | MEASURED_ON | TGI / µM
C#CC[C@@H]1C[C@]2(C)[C@H]3CC[C@@H]4[C@H]5[C@H](C(=C)C)CC[C@]5(C(=O)O)CC[C@@]4(C)[C@]3(C)CC[C@H]2C(C)(C)[C@H]1O | UACC-257 melanoma | 13.4
C=C1C(=O)OC2C[C@H](C)C3CC(=O)C(C)=C3CC12 (stereo partly specified) | UACC-257 melanoma | 28.6
CC/C(Cl)=N\OC(=O)Nc1ccccc1OC(F)(F)F | UACC-257 melanoma | 32.8
OC(c1ccc(F)cc1)C(F)(F)c1nc(-c2ccccc2)no1 (stereo unspecified) | UACC-257 melanoma | 43.4

Now for the compound whose TGI we want.
For CCCN(CCC)c1ccc(C=O)cc1 , what is its reported TGI?
98.2

###

# Test system: MDA-MB-231 breast
# ASSAY_OVERVIEW: NCI tumour cell line growth inhibition, 48 h
Reported GI50 values follow for various compounds

Consider the reported GI50 for these compounds:
COMPOUND | GI50
CCCCCCCCCCCCOC1C(CNC(=O)C2OC3OC(C)(C)OC3C2NC(=O)CN2CCN(c3ccccn3)CC2)OC2OC(C)(C)OC21 (configuration not stated) | 1670 nM
O=C(CCc1nnc(-c2c(Cl)cccc2Cl)o1)c1nc2ccccc2[nH]1 | 2680 nM
Fc1ccc(CNc2c3ccccc3nc3ccccc23)cc1 | 1900 nM
Nc1ccccc1/C=N\Nc1ccccc1 | 8230 nM
CC(C)(C)C(=O)OCOP(=O)(OCOC(=O)C(C)(C)C)C1CCCN(OC(=O)c2ccccc2)C1=O (configuration not stated) | 716 nM

For Cn1cc(C2=C(c3c4n(c5ccccc35)CC(CN)C4)C(=O)NC2=O)c2ccccc21 (configuration not stated) , what is its reported GI50?
3780 nM

Likewise for O=C1Nc2ccccc2C1(c1ccc(O)c(F)c1)c1ccc(O)c(F)c1 ?
13400 nM

###

Reported TGI values follow for various compounds
# System: NCI-H23 lung
# ASSAY_OVERVIEW: NCI tumour cell line growth inhibition, 48 h
Reply numerically in µM, unit not repeated.

COMPOUND | UOM | TGI
O=C(CCc1nnc(-c2c(Cl)cccc2Cl)o1)c1nc2ccccc2[nH]1 | µM | 63.2
C/C(O)=C(/C=N\C(=S)Nc1ccc(Cl)c(Cl)c1)C(=O)Nc1ccccc1C | µM | 76.8
Nc1ncnc2c1c(-c1cccc(OCc3ccccc3)c1)cn2C1CC(CN2CCCC2)C1 (stereo not given) | µM | 16

Now for the compound whose TGI we want.
Tell me reported TGI for CCOC(=O)C1=C(N)Oc2c(sc3c(C)cccc23)C1c1ccc(Cl)cc1 (stereo not given) , tested with NCI-H23 lung.
10.5

###

# System: SK-MEL-5 melanoma
# ASSAY_OVERVIEW: NCI tumour cell line growth inhibition, 48 h
ASSAY_ENDPOINT: TGI

Consider the reported TGI for these compounds:
COMPOUND | TGI
CCCCCCCCCCCCOC1C(CNC(=O)C2OC3OC(C)(C)OC3C2NC(=O)CN2CCN(c3ccccn3)CC2)OC2OC(C)(C)OC21 (stereo not drawn) | 3.09 µM
Cc1c(C)c(S(=O)(=O)N(CCCCCN)OCCCN)c(C)c2c1OC(C)(C)CC2 | > 50.4 µM
Cc1cc(Cl)ccc1NC(=O)/C(Cl)=C(/Cl)C(=O)O | > 100 µM
O=C1Nc2cc(Cl)ccc2Oc2cc(Oc3ccccc3)ccc21 | 15.1 µM
CSC(=NC1CC(n2cc(C)c(=O)[nH]c2=O)OC1CO)NC#N (stereo not drawn) | > 100 µM

For Cn1c(=O)nc2n(CCO)ccnc-2c1=O , what is its reported TGI?
> 100 µM

Likewise for Cn1c(=O)oc2cc(C(=S)N3CCC(Cc4ccccc4)CC3)ccc21 ?
> 100 µM

Likewise for Cn1c(=O)cc(NNc2ccc(Br)cc2)[nH]c1=O ?
30.2 µM

Likewise for Nc1ccc2cc(S(=O)(=O)O)cc(O)c2c1N=Nc1ccc(NC(=O)Nc2ccc(N=Nc3c(N)ccc4cc(S(=O)(=O)O)cc(O)c34)c(S(=O)(=O)O)c2)cc1S(=O)(=O)O ?
> 100 µM

Likewise for CC(=O)Nc1ccc2c3c(cc(O)c2c1)N(C(=O)CCCC(=O)Nc1ccc2c4c(cc(O)c2c1)N(C(=O)OC(C)(C)C)CC4CCl)CC3CCl (stereo not drawn) ?
> 11.6 µM

Likewise for O=C(CSc1nc2ccc([N+](=O)[O-])cc2[nH]1)Nc1cccc(Cl)c1 ?
2.6 µM
